Recorded melting point values for a group of molecules are listed next.

CCCNS(=O)(=O)N(Cc1ccc(-c2noc(C(F)(F)F)n2)cc1)C1CC1
70 to 73 °C
O=S(=O)(Nc1ccc(-c2noc(C(F)(F)F)n2)cc1)c1ccccc1
115 to 130 °C
O=S(=O)(NCc1ccc(-c2noc(C(F)(F)F)n2)cc1)c1ccccc1F
120 to 123 °C

// query melting point value for entry CN(C)S(=O)(=O)NCc1ccc(-c2noc(C(F)(F)F)n2)cc1
105 to 107 °C

Also O=S(=O)(NCc1ccc(-c2noc(C(F)(F)F)n2)cc1)N1CCOCC1 ?
108 to 110 °C

Also O=S(=O)(N1CCOCC1)N(Cc1ccc(-c2noc(C(F)(F)F)n2)cc1)C1CC1 ?
99 to 101 °C

Also CCCS(=O)(=O)Nc1ccc(-c2noc(C(F)(F)F)n2)cc1 ?
65 to 75 °C

Also COCCS(=O)(=O)NCc1ccc(-c2noc(C(F)(F)F)n2)cc1 ?
97 to 100 °C

Also CCNS(=O)(=O)N(Cc1ccc(-c2noc(C(F)(F)F)n2)cc1)C1CC1 ?
108 to 110 °C

Also CN(Cc1ccc(-c2noc(C(F)(F)F)n2)cc1)S(C)(=O)=O ?
103 to 105 °C

Also CON(Cc1ccc(-c2noc(C(F)(F)F)n2)cc1)S(=O)(=O)C1CC1 ?
73 to 75 °C
